Molecular target: T1, mouse AQP3 on the cell surface (PAM212 cells, mouse macrophage cells, HEK293 cells stably overexpressing … (mouse, UniProt Q8R2N1 1-292))
T1 construct: whole, on cells; Membrane water channel; also called mouse aquaporin 3
T1 sequence (looked up): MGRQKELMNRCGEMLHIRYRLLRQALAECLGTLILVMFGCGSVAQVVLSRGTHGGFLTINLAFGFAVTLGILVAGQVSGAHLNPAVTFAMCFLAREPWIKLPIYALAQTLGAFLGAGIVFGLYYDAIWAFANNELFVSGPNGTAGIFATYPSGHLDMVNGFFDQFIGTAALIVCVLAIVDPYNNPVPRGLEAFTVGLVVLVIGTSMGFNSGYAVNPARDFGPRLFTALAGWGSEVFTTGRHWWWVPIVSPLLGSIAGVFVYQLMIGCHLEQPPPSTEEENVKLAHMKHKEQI
Assay: fluorescence of a labelled secondary antibody on PAM212 cells; antibody at 10 µg/mL
readout name: binding result

>>> result("antibody E (antibody, mouse IgG2a, kappa, V domains shown, also called anti AQP3 mAb E) VH: EVKLLESGAELVRPGASVTLSCKASGYTFTDYEMHWVKQTPVHGLEWIGGIDPESGGTGYNQKFKGKAILTADKSSSTAYMELRSLTSEDSAVYFCTRSGYYGSPLLDYWGQGTTLTVSS VL: QIVLSQSPAIMSASLGERVTMTCTASSSVSSSYLHWYQQKPGSSPKLWIYSTSNLASGVPARFSGSGSGTSYSLTISSMEAEDAATYYCHQYHRSPPTFGAGTKLEIKR")
"binds"
>>> result("antibody C (antibody, mouse IgG2a, kappa, V domains shown, also called anti AQP3 mAb C) VH: QVQLKQSGAELARPGASVKLSCKASGYNFKSYGISWVKQRTGQGLEWIGEIYPGSGNTYYNEKLKGKATLTADKSSSTAYMELRSLTSEDSAVYFCARTYGYDSFPWFAYWGQGTLVTVSS VL: DIVMTQAAPSVPVTPGESVSISCRSSKSLLHSNGNTYLYWFLQRPGQSPQLLIYRVSNLASGVPDRFSGSGSGTAFTLRISRVEAEDEGVYYCMQHLEYPFTFGAGTKLEIKR")
"binds"
>>> result("antibody D (antibody, mouse IgG2a, kappa, V domains shown, also called anti AQP3 mAb D) VH: EVQLQQSGAELVRPGASVTLSCKASGYTFTDYEMHWVQQTPVHGLEWIGGIDPETGGTGYNQKFKGKAILTADKSSSTAYMELRSLTSEDSAVYFCTRHGSYAMDYWGQGTSVTVSS VL: DIVMTQSPKFMSTSVGDRVSITCKASQDVSTAVAWYQQKPGQSPKLLIYWASTRHTGVPDRFTGSGSGTDYTLTISSVQAEDLALYYCQQHYSTPPTFGGGTRLEIKR")
"binds"
